Value source: patent US10125098B2

- Target or system: NaV1.5 (Homo sapiens)
- Construct: permanently transfected with an expression vector containing the full-length cDNA coding for the desired human sodium channel α-subunit; expressed in transfected cells; host or cells: HEK-293
- Sequence (Q14524 whole entry): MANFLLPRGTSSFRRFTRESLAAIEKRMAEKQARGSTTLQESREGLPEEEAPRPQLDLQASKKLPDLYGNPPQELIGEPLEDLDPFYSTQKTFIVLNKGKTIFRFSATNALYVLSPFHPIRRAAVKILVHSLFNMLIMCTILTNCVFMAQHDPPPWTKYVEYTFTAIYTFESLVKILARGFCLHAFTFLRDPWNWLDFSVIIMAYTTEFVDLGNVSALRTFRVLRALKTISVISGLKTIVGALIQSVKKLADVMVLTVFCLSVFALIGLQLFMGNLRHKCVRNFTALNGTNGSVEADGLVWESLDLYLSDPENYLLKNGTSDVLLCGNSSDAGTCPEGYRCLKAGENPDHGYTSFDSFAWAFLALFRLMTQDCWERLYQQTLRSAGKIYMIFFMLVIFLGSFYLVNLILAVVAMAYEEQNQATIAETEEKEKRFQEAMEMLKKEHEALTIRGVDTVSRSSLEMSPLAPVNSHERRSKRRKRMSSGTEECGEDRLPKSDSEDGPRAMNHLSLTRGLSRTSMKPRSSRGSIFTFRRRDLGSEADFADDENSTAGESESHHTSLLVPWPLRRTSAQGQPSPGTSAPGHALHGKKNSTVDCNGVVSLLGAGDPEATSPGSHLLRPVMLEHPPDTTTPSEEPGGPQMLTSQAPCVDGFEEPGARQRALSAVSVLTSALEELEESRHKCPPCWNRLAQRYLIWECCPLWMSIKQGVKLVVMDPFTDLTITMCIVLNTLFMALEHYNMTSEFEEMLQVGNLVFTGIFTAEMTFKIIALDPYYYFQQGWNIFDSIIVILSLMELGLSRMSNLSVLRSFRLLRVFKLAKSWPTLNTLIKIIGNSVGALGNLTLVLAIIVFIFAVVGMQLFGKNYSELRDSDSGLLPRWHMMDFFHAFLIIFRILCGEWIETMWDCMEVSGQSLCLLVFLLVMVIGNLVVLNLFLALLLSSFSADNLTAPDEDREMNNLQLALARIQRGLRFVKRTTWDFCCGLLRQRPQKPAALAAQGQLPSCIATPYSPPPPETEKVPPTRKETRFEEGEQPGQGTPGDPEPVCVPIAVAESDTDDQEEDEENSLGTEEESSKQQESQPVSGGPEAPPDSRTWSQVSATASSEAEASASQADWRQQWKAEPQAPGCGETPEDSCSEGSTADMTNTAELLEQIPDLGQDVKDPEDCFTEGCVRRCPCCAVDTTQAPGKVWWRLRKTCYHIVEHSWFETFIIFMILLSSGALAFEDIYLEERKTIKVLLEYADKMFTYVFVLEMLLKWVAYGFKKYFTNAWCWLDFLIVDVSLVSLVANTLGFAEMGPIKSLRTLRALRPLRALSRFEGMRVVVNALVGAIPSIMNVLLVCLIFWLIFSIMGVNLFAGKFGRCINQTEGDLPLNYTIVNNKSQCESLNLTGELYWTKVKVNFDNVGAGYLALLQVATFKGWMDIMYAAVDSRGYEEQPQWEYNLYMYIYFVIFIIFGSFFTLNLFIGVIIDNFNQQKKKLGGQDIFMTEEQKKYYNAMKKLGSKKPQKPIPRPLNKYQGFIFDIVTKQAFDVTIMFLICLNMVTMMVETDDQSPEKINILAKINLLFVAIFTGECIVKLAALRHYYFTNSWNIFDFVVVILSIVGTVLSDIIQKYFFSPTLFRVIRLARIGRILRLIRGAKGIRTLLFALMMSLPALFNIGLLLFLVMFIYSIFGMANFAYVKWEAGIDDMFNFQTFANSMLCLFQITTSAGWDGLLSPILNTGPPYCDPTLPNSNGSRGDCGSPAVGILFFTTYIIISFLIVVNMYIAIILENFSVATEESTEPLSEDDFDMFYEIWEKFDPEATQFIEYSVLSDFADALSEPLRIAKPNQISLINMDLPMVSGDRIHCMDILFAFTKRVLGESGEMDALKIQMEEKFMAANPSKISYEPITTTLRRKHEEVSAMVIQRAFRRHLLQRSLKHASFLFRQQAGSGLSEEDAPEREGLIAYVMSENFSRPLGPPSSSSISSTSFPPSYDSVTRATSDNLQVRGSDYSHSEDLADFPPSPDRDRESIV
- Procedure details: Patch voltage clamp electrophysiology assay (EP), NaV1.5
- Format: cell-based
- Experimental setup: HEK-293 cells stably expressing NaV1.5 with β1 subunit; whole-cell patch clamp, membrane potential −60 mV (inactivated state); read-out: Nav1.5
Where a name gives a salt, the structure may show the parent alone.
Record form. Attribute: pIC50. Fill in for each entry.
The value called pIC50 is obtained by taking minus log10 of the concentration in mol/L.

Q: pIC50 for C[C@H]1CCN(C(=O)c2cc(C3CC3)c(OCC3(C)CN([C@H](c4ccccc4)c4cc(Cl)cc(Cl)c4)C3)cc2F)[C@@H]1C(=O)O (single isomer, unassigned) [Example 115] ?
A: 4.96

Q: Repeat with O=C(NC(C(=O)O)C1CCC1)c1cc(C2CC2)c(OCC2(F)CCN(Cc3cc(C(F)(F)F)ccc3Cl)CC2)cc1F (stereo not shown) [Example 110]
A: 5.00

Q: // next record O=C(O)[C@@H]1C[C@@H](F)CN1C(=O)c1cc(C2CC2)c(OCC2CCN(Cc3cc(Cl)cc(C(F)(F)F)c3)CC2)cc1F [Example 173]
A: 4.64

Q: // query: C[C@H]1OCN(C(=O)c2cc(C3CC3)c(OCC3CCN(Cc4cc(C(F)(F)F)ccc4Cl)CC3)cc2F)[C@@H]1C(=O)O [Example 228]
A: 4.60

Q: Next entry: CC(C)C[C@H](NC(=O)c1cc(C2CC2)c(OCC23CC4CC(CC(C4)C2)C3)cc1F)C(=O)O [Example 88]
A: 5.09

Q: Same lookup for O=C(O)[C@@H]1[C@H](F)CCN1C(=O)c1cc(C2CC2)c(OCC23CC4CC(CC(C4)C2)C3)cc1F [Example 63] , please.
A: 4.74

Q: Moving on to the next compound: CC(c1cc(Cl)cc(Cl)c1)N1CCC(COc2cc(F)c(C(=O)N3[C@@H](C(=O)O)C[C@H]4CCC[C@H]43)cc2C2CC2)CC1 (stereo partly shown) [Example 172]
A: 4.85

Q: Lookup O=C(c1cc(C2CC2)c(OCC23CC4CC(CC(C4)C2)C3)cc1F)N1CC2CC1(C(=O)O)C2 [Example 176]
A: 5.14

Q: // next record O=C(O)C1COCN1C(=O)c1cc(C2CC2)c(OCC23CC4CC(CC(C4)C2)C3)cc1F (stereo in doubt) [Example 154]
A: 4.80

Q: # iterate: C[C@@H](c1cc(Cl)cc(Cl)c1)N1CCC(COc2cc(F)c(C(=O)N3[C@@H]4C[C@@H]4C[C@H]3C(=O)O)cc2C2CC2)CC1 [Example 156]
A: 4.77

Q: Same for O=C(O)[C@@H]1CC(F)(F)CN1C(=O)c1cc(C2CC2)c(OCC23CC4CC(CC(C4)C2)C3)cc1F [Example 160]
A: 4.80

Q: Check CC1(COc2cc(F)c(C(=O)N3CCC[C@H]3C(=O)O)cc2C2CC2)CN(C(c2ccccc2)c2cc(Cl)cc(Cl)c2)C1 (stereo partly shown) [Example 196, trifluoroacetate] too.
A: 4.89

Q: What about C[C@H]1OCN(C(=O)c2cc(C3CC3)c(OCC3CCN([C@@H](C)c4cc(Cl)cc(Cl)c4)CC3)cc2F)[C@@H]1C(=O)O [Example 164] ?
A: 4.89
